Cited source for all entries: patent US9265764B2

system: panel of 358 kinases; assay: KINOMEscan active-site dependent competition binding assay; settings: 10 μM
Reported Number of Binding Targets (kinases) values for the following compounds.
Endpoint Label: Number of Binding Targets (kinases)

compound="Cn1cc(C2=C(c3cn(C4CCN(Cc5ccccn5)CC4)c4ccccc34)C(=O)NC2=O)c2ccccc21 [enzastaurin]" assay_result=75
compound="CN(C)C[C@@H]1CCn2cc(c3ccccc32)C2=C(C(=O)NC2=O)c2cn(c3ccccc23)CCO1 [ruboxistaurin]" assay_result=95
compound="Cc1c[nH]c(-c2cnc(NCCNc3ccc(C#N)cn3)nc2-c2ccc(Cl)cc2Cl)n1 [CHIR-99021]" assay_result=10
compound="Cn1cc(C2=C(c3ccc(Cl)cc3Cl)C(=O)NC2=O)c2ccccc21 [SB-216763]" assay_result=31

====

biological target: human GSK-3β (Homo sapiens, UniProt P49841); construct: Recombinant full-length human GSK-3β (NM_002093) with an N-terminal GST tag; GST (N); test: in vitro GSK-3β kinase assay (Kinase-Glo luminescence); details: FIG. 9 dose response, n=4
Sequence (P49841 1-433 isoform P49841-2): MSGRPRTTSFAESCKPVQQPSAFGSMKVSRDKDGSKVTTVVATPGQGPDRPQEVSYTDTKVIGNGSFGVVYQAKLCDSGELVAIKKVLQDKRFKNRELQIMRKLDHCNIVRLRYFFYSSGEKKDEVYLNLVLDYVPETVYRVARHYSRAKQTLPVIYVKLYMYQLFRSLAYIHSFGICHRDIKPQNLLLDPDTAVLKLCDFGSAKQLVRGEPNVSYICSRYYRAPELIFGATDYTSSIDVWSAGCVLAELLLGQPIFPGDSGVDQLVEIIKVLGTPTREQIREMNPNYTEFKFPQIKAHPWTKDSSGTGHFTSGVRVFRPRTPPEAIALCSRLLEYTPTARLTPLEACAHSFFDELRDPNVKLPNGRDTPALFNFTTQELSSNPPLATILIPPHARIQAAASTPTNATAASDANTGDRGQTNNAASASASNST
Endpoint Label: IC50

compound="CN(C)CCCn1cc(C2=C(c3c[nH]c4ccccc34)C(=O)NC2=O)c2ccccc21 [BIM-I, bisindoylmaleimide I]" endpoint_label=IC50 assay_result="~6.9 nM"
